Data origin, for the record: patent US20200123208A1

test system: Globodera pallida J2s; assay: Tomato invasion assay, G. pallida J2s; format: in vivo; conditions: G. pallida J2s, 100 μM uNLP, 24 h; tomato seedlings

RECORD_SEQUENCE	host invasion relative to controls
GGARAFNFFAPPDE [Gp-NLP-21a, predicted unamidated NLP of Globodera pallida]	178.9%+/−48.52
SGIQTFRDDYDEKQAGEL [Gp-NLP-21d, predicted unamidated NLP of Globodera pallida]	2.01%+/−1.545
GGARAFNFFAPDE [Gp-NLP-21b, predicted unamidated NLP of Globodera pallida]	6.897%+/−3.855
GGTRAFNFFVSDALPSSYE [Gp-NLP-21c, predicted unamidated NLP of Globodera pallida]	14.07%+/−4.655
AGGRYFMRHFDDSPFAGWMA [Gp-NLP-21g, predicted unamidated NLP of Globodera pallida]	214.8%+/−30.31

* * *

tested on: Meloidogyne incognita J2s; experiment: Tomato invasion assay, M. incognita J2s; type: in vivo; details: 100 μM uNLP, 24 h, tomato seedlings, normalised to negative control

RECORD_SEQUENCE	MEASUREMENT_TARGET	host invasion compared to controls
FAPRQFAFA [Mi-NLP-18a, predicted unamidated NLP of Meloidogyne incognita]	Meloidogyne incognita J2s	25.88%+/−8.695
ALDMLEGDDFIGMQ [Mi-NLP-14a, predicted unamidated NLP of Meloidogyne incognita]	Meloidogyne incognita J2s	44.61%+/−12.25
SFDSFTGPGFTGLD [Mi-NLP-15b]	Meloidogyne incognita J2s	32.22%+/−8.122
SAFDSFVGRGFTGMD [Mi-NLP-15e, predicted unamidated NLP of Meloidogyne incognita]	Meloidogyne incognita J2s	38.71%+/−5.963
SSQFGGENSFARFAFA [Mi-NLP-18e, predicted unamidated NLP of Meloidogyne incognita]	Meloidogyne incognita J2s	46.49%+/−7.391
AGARAFQRPDFDDASYEL [Mi-NLP-9a, predicted unamidated NLP of Meloidogyne incognita]	Meloidogyne incognita J2s	45.59%+/−22.97
GGGRYFIRPFADQ [Mi-NLP-9f, predicted unamidated NLP of Meloidogyne incognita]	Meloidogyne incognita J2s	28.22%+/−5.253
GMRNFAFA [Mi-NLP-18b, predicted unamidated NLP of Meloidogyne incognita]	Meloidogyne incognita J2s	47.81%+/−6.008
AFDRLDNSFMLL [Mi-NLP-8d, predicted unamidated NLP of Meloidogyne incognita]	Meloidogyne incognita J2s	29.31%+/−12.57

* * *

Test system: Meloidogyne incognita J2s
Test: Tomato invasion assay, M. incognita J2s
Format: in vivo
Details: 100 μM uNLP, 24 h, tomato seedlings, normalised to negative control
Protocol: Predicted uNLPs from both M. incognita and G. pallida were synthesised by EZBiolab and dissolved into pH adjusted ddH2O to make a 5 mM stock which was aliquoted and stored at −20° C. […] Tomato seeds were sterilised with 2.5% NaOCl for 15 minutes, washed 5 times in ddH2O and germinated on 0.5% Murashige and Skoog plates at 23° C. […] Seedlings were stained using acid fuschin [69] and the number of nematodes within the roots counted.

RECORD_SEQUENCE	host invasion compared to controls
AAENFDENNDIN [Mi-NLP-18d, predicted unamidated NLP of Meloidogyne incognita]	34.21%+/−12
FNDDELSSLPFNFEYFPSLDTH [Mi-NLP-8b, predicted unamidated NLP of Meloidogyne incognita]	61.38%+/−11.56
ALDMMEGDDFIGL [Mi-NLP-14c, predicted unamidated NLP of Meloidogyne incognita]	20.96%+/−11.12
GGARPFYGFFGGGEGTW [Mi-NLP-9e, predicted unamidated NLP of Meloidogyne incognita]	48.68%+/−10.87
